# study_system: Purβ I-II-III (Mus musculus, UniProt O35295)
# Sequence (O35295 41-303): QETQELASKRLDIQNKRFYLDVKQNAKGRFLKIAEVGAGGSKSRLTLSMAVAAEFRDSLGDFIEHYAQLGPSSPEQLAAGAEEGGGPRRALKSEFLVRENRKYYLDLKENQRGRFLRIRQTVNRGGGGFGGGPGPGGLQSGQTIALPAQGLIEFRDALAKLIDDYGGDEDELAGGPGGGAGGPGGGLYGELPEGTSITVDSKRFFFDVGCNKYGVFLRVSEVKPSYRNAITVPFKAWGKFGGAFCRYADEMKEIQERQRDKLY
pIC50: −log10 of the molar value.

[
  {
    "compound": "C[C@H](CCC(=O)O)[C@H]1CC[C@H]2[C@@H]3CC[C@@H]4C[C@H](O)CC[C@]4(C)[C@H]3C[C@H](O)[C@]12C [sodium deoxycholate]",
    "pIC50": 2.69
  }
]
